Tested on: A549
PROTOCOL_TEXT: Cytotoxicity against human A549 cells after 48 hrs by SRB assay
Type: functional, cell-based
EXPERIMENTAL_SETUP: Homo sapiens, A549, 48 h
READOUT_KIND: LC50 (nM)
Quick note: give the figure in nM, leave out the unit.

Q: Please give the measured LC50 for this compound: C/C=C1\NC(=O)[C@H](Cc2ccccc2)NC(=O)[C@@H](C(C)C)NC(=O)[C@@H]([C@H](C)CC)NC(=O)[C@H](NC(=O)[C@H](NC(=O)[C@H](CCCN)NC(=O)[C@H]2CCCN2C(=O)[C@H](NC(=O)[C@@H](NC(=O)[C@@H](NC(=O)[C@H](NC(=O)CCCCCCCCCC)C(C)C)[C@@H](C)O)C(C)C)C(C)C)[C@H](C)CC)[C@H](C)OC(=O)[C@H](C(C)C)NC1=O
Result: 456

Q: Please give the measured LC50 for this compound: C/C=C1\NC(=O)[C@H](Cc2ccccc2)NC(=O)[C@@H](C(C)C)NC(=O)[C@@H]([C@H](C)CC)NC(=O)[C@H](NC(=O)[C@H](NC(=O)[C@H](CCCCN)NC(=O)[C@H]2CCCN2C(=O)[C@H](NC(=O)[C@@H](NC(=O)[C@@H](NC(=O)[C@H](NC(=O)CCCC(C)C)C(C)C)[C@@H](C)O)C(C)C)C(C)C)[C@H](C)CC)[C@H](C)OC(=O)[C@H](C(C)C)NC1=O
Result: 1340

Q: Please give the measured LC50 for this compound: C/C=C1\NC(=O)[C@H](Cc2ccccc2)NC(=O)[C@@H](C(C)C)NC(=O)[C@@H]([C@H](C)CC)NC(=O)[C@H](NC(=O)[C@H](NC(=O)[C@H](CCCN)NC(=O)[C@H]2CCCN2C(=O)[C@H](NC(=O)[C@@H](NC(=O)[C@@H](NC(=O)[C@@H](CCC(N)=O)NC(=O)CCCC(C)C)[C@@H](C)O)C(C)C)C(C)C)[C@H](C)CC)[C@H](C)OC(=O)[C@H](C(C)C)NC1=O
Result: 664
